- Assayed system: Bifunctional epoxide hydrolase 2 (Homo sapiens)
- Sequence (P34913 whole entry): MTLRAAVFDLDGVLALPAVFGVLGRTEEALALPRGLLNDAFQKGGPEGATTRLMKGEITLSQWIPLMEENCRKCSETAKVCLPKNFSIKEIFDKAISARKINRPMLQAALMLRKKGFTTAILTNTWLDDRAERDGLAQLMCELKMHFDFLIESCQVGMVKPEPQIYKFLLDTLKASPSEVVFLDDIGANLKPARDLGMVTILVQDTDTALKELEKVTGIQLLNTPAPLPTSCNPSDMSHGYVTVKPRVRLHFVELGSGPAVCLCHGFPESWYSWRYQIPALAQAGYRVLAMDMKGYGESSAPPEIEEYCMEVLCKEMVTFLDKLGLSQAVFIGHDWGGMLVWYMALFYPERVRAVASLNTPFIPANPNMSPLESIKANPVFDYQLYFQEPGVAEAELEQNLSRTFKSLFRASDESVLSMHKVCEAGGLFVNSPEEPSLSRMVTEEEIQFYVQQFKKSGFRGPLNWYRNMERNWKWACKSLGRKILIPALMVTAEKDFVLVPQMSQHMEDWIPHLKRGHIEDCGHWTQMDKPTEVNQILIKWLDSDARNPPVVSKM
- Protocol text: Inhibition of sEH using (3-Phenyl-oxiranyl)-acetic acid cyano-(6-methoxy-naphthalen-2-yl)-methyl ester) as substrate incubated for 15 mins prior to substrate addition measured every min for 15 mins by fluorimetric analysis
Measured quantity: IC50
I'd appreciate it if you wrote the number followed by its unit.

Before answering, review these 2 worked examples.
compound_structure=O=C(Nc1cccc(Cl)c1)OCCCNS(=O)(=O)c1cccc([N+](=O)[O-])c1 measured_quantity=IC50 reported="3.2 µM"
compound_structure=O=C(NCCCNc1ncc(-c2ccncc2)c(C2CC2)n1)c1ccccn1 measured_quantity=IC50 reported="25 µM"

# evaluate next
Lookup: Value lookup for IC50; key = O=C(Nc1cccc(O)c1)OCC1c2ccccc2-c2ccccc21
Found: 5.5 µM
